Source of measurements: patent US20160237106A1

assay-text: in vitro
run-conditions: African green monkey

{"compound": "[N-]=[N+]=N[C@]1(CO)O[C@@H](n2cnc3c(=O)[nH]c(N)nc32)[C@H](O)[C@@H]1O [Compound I-48, 4′-Azidoguanosine]", "CC50": "> 50 µM"}
{"compound": "[N-]=[N+]=N[C@]1(CO)O[C@@H](n2cnc3c(=O)[nH]c(N)nc32)[C@H](F)[C@@H]1O [Compound I-47, 4′-Azido-2′-deoxy-2′-fluoroguanosine]", "CC50": "> 50 µM"}
{"compound": "C[C@H](NP(=O)(OC[C@@]1(N=[N+]=[N-])O[C@@H](n2ccc(=O)[nH]c2=O)[C@H](O)[C@@H]1O)Oc1cccc2ccccc12)C(=O)OCc1ccccc1 (stereo partly shown) [Compound I-6]", "CC50": "> 50 µM"}
{"compound": "[N-]=[N+]=N[C@]1(CO)O[C@@H](n2ccc(N)nc2=O)[C@H](F)[C@@H]1O [Compound I-17, 4′-Azido-2′-deoxy-2′-fluorocytidine]", "CC50": "> 50 µM"}
